molecular target: SARS-COV-2 spike, Mu variant (B.1.621) (SARS-COV-2, UniProt P0DTC2 14-1273); assay: cell-based or functional assay
EXPERIMENTAL READOUT: EC50, neutralization of spike pseudotyped virus (nM)
Give a bare numeral; the unit nM is implied.

IN: Which EC50, neutralization of spike pseudotyped virus is listed for BP1B1 Nb-huFc (Fc fusion) EVQLQASGGGFVQPGGSLRLSCAASGRTFSGYIMGWFRQAPGKEREFVSAISQGDSYASYYADSVKGRFTISRDNSKNTVYLQMNSLRAEDTATYYCALYDINTVPYYWGQGTQVTVSS ?
OUT: 6.97

IN: Which EC50, neutralization of spike pseudotyped virus is listed for DP4F2 Nb-huFc (Fc fusion) EVQLQASGGGFVQPGGSLRLSCAASGTTYSERVMGWFRQAPGKEREFVSAISSGQSDQTYYYADSVKGRFTISRDNSKNTVYLQMNSLRAEDTATYYCAPFAGDANLPREWYWGQGTQVTVSSA ?
OUT: 25.1
